TESTED SYSTEM: human V2 receptor (Homo sapiens, UniProt P30518)
Construct: expressed in transfected cells; host or cells: CHO K1 (ATCC) expressing firefly luciferase under a CRE-responsive promoter
Sequence (P30518 whole entry): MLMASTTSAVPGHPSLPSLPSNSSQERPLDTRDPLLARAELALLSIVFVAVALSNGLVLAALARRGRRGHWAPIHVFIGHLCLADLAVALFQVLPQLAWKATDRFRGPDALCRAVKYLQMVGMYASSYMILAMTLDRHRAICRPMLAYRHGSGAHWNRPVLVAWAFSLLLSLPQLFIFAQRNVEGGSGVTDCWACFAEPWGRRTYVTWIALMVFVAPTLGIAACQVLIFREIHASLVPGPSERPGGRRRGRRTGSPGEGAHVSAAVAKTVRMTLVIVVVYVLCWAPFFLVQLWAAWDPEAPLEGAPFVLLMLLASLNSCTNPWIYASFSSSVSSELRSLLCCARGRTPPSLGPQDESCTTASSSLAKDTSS
PROTOCOL: Cellular in vitro assay for determining vasopressin receptor activity, V2 receptor cell line (CRE-luciferase)
Assay type: cell-based
ASSAY SETUP: CHO cell line transfected with human V2 receptor; [Arg8]-vasopressin at EC50; compounds of the invention (Table 1A); read-out: IC50 hV2
REPORTED METRIC: IC50 (nM)

[
  {
    "MOLECULE": "CC(O)c1nc(Cn2nc(-c3ccc(Cl)cc3)n(C[C@H](O)C(F)(F)F)c2=O)nn1-c1ccccc1 (single isomer, unassigned) [Example 17]",
    "IC50 / nM": 3.4
  },
  {
    "MOLECULE": "CC(O)c1nc(Cn2nc(-c3ccc(Cl)cc3)n(C[C@H](O)C(F)(F)F)c2=O)nn1-c1cc(Cl)cc(Cl)c1 (mixture of isomers) [Example 46]",
    "IC50 / nM": 2.1
  }
]

a. CC(O)c1nc(Cn2nc(-c3ccc(Cl)cc3)n(C[C@H](O)C(F)(F)F)c2=O)nn1-c1cccc(Cl)c1F (single isomer, unassigned) [Example 53]
b. CC(O)c1nc(Cn2nc(-c3ccc(Cl)cc3)n(C[C@H](O)C(F)(F)F)c2=O)nn1-c1ccc(F)cc1Cl (mixture of isomers) [Example 34]
c. CC(O)c1nc(Cn2nc(-c3ccc(Cl)cc3)n(C[C@H](O)C(F)(F)F)c2=O)nn1-c1ccc(F)c(Cl)c1 (single isomer, unassigned) [Example 45]
d. CC(O)c1nc(Cn2nc(-c3ccc(Cl)cc3)n(C[C@H](O)C(F)(F)F)c2=O)nn1-c1ccccc1C(F)(F)F (single isomer, unassigned) [Example 73]
Sort the molecules on IC50; start with the lowest figure. Labels, ranked as asked.
b, a, c, d

----------
TESTED SYSTEM: human V2 receptor (Homo sapiens)
Construct: expressed in transfected cells; host or cells: CHO K1 (ATCC) expressing firefly luciferase under a CRE-responsive promoter
PROTOCOL: Cellular in vitro assay for determining vasopressin receptor activity, V2 receptor cell line (CRE-luciferase)
Format: cell-based
ASSAY SETUP: CHO cell line transfected with human V2 receptor; [Arg8]-vasopressin at EC50; compounds of the invention (Table 1A); read-out: IC50 hV2
REPORTED METRIC: IC50 (nM)

Solved cases below.
[
  {
    "MOLECULE": "CC(O)c1nc(Cn2nc(-c3ccc(Cl)cc3)n(C[C@H](O)C(F)(F)F)c2=O)nn1-c1cccc(C(F)F)c1 (mixture of isomers) [Example 19]",
    "UNITS OF MEASURE": "nM",
    "IC50": 1.4
  },
  {
    "MOLECULE": "COc1ccccc1-n1nc(Cn2nc(-c3ccc(Cl)cc3)n(C[C@H](O)C(F)(F)F)c2=O)nc1C(C)O (single isomer, unassigned) [Example 11]",
    "UNITS OF MEASURE": "nM",
    "IC50": 0.3
  },
  {
    "MOLECULE": "CC(O)c1nc(Cn2nc(-c3ccc(Cl)cc3)n(C[C@H](O)C(F)(F)F)c2=O)nn1-c1cccc(Cl)c1Cl (single isomer, unassigned) [Example 63]",
    "UNITS OF MEASURE": "nM",
    "IC50": 1.9
  },
  {
    "MOLECULE": "CC(O)c1nc(Cn2nc(-c3ccc(Cl)cc3)n(C[C@H](O)C(F)(F)F)c2=O)nn1-c1cc(F)cc(F)c1 (single isomer, unassigned) [Example 27]",
    "UNITS OF MEASURE": "nM",
    "IC50": 7.7
  },
  {
    "MOLECULE": "O=c1n(Cc2nc(CO)n(-c3cc(F)cc(F)c3)n2)nc(-c2ccc(Cl)cc2)n1C[C@H](O)C(F)(F)F [Example 7]",
    "UNITS OF MEASURE": "nM",
    "IC50": 2.6
  }
]

1. CCc1ccccc1-n1nc(Cn2nc(-c3ccc(Cl)cc3)n(C[C@H](O)C(F)(F)F)c2=O)nc1C(C)O (mixture of isomers) [Example 31]
2. CC(O)c1nc(Cn2nc(-c3ccc(Cl)cc3)n(C[C@H](O)C(F)(F)F)c2=O)nn1-c1cccc(Cl)c1 (mixture of isomers) [Example 78]
3. O=c1n(Cc2nc(CO)n(-c3ccccc3C(F)(F)F)n2)nc(-c2ccc(Cl)cc2)n1C[C@H](O)C(F)(F)F [Example 8]
4. C[C@H](O)c1nc(Cn2nc(-c3ccc(Cl)cc3)n(C[C@H](O)C(F)(F)F)c2=O)nn1-c1cccc(Cl)c1 [Example 79]
Form: Sort by [IC50] Order [ ascending ] Answer format: the labels, ordered as requested.
1, 4, 2, 3

1. CC(O)c1nc(Cn2nc(-c3ccc(Cl)cc3)n(C[C@H](O)C(F)(F)F)c2=O)nn1-c1cccc(OC(F)F)c1 (single isomer, unassigned) [Example 57]
2. CCc1ccccc1-n1nc(Cn2nc(-c3ccc(Cl)cc3)n(C[C@H](O)C(F)(F)F)c2=O)nc1C(C)O (single isomer, unassigned) [Example 32]
Lab log: flag the item ( 1 or 2 ) with the smaller IC50 figure. Record your answer as the label of the chosen record.
2

----------
TESTED SYSTEM: human V2 receptor (Homo sapiens, UniProt P30518)
PROTOCOL: Cellular in vitro assay for determining vasopressin receptor activity, V2 receptor cell line (CRE-luciferase)
ASSAY SETUP: CHO cell line transfected with human V2 receptor; [Arg8]-vasopressin at EC50; compounds of the invention (Table 1A); read-out: IC50 hV2
REPORTED METRIC: IC50 (nM)

[
  {
    "MOLECULE": "CC(O)c1nc(Cn2nc(-c3ccc(Cl)cc3)n(C[C@H](O)C(F)(F)F)c2=O)nn1-c1cccc(Cl)c1F (single isomer, unassigned) [Example 54]",
    "REPORTED METRIC": "IC50",
    "VALUE OBSERVED": 1.6
  }
]

P. CC(O)c1nc(Cn2nc(-c3ccc(Cl)cc3)n(C[C@H](O)C(F)(F)F)c2=O)nn1-c1cccc(F)c1Cl (single isomer, unassigned) [Example 68]
Q. Cc1cccc(-n2nc(Cn3nc(-c4ccc(Cl)cc4)n(C[C@H](O)C(F)(F)F)c3=O)nc2C(C)O)c1 (mixture of isomers) [Example 28]
R. CC(O)c1nc(Cn2nc(-c3ccc(Cl)cc3)n(C[C@H](O)C(F)(F)F)c2=O)nn1-c1ccccc1F (mixture of isomers) [Example 40]
S. COc1ccc(F)cc1-n1nc(Cn2nc(-c3ccc(Cl)cc3)n(C[C@H](O)C(F)(F)F)c2=O)nc1C(C)O (mixture of isomers) [Example 37]
T. CC(O)c1nc(Cn2nc(-c3ccc(Cl)cc3)n(C[C@H](O)C(F)(F)F)c2=O)nn1-c1cc(F)ccc1Cl (single isomer, unassigned) [Example 59]
Put the items in sequence by IC50, from largest down. Field: ranking. Enter the labels in the order requested.
R, T, P, S, Q
(R: 7.2 nM, T: 2.4 nM, P: 1.3 nM, S: 0.7 nM, Q: 0.2 nM)

----------
TESTED SYSTEM: human V1a receptor (Homo sapiens, UniProt P37288)
Sequence (P37288 whole entry): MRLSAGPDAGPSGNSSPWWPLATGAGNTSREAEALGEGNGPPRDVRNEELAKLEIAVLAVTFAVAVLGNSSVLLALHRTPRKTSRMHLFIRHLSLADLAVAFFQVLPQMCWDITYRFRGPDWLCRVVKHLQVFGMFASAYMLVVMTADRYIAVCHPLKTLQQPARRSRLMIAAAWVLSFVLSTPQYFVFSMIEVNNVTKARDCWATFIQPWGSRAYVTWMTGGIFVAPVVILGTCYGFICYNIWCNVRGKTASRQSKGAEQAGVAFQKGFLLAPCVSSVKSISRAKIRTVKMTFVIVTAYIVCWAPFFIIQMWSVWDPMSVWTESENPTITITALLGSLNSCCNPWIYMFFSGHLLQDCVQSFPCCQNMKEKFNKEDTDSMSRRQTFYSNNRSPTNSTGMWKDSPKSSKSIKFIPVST
PROTOCOL: Cellular in vitro assay for determining vasopressin receptor activity, V1a receptor cell line (photoprotein luminescence)
ASSAY SETUP: CHO cell line transfected with human V1a receptor; [Arg8]-vasopressin at EC50; compounds of the invention (Table 1A); read-out: IC50 hV1a
pIC50: −log10 of the molar value.
REPORTED METRIC: pIC50

[
  {
    "MOLECULE": "CC(O)c1nc(Cn2nc(-c3ccc(Cl)cc3)n(C[C@H](O)C(F)(F)F)c2=O)nn1-c1cc(Cl)cc(Cl)c1 (mixture of isomers) [Example 46]",
    "pIC50": 8.20
  },
  {
    "MOLECULE": "COc1ccccc1-n1nc(Cn2nc(-c3ccc(Cl)cc3)n(C[C@H](O)C(F)(F)F)c2=O)nc1C(C)O (mixture of isomers) [Example 10]",
    "pIC50": 8.85
  },
  {
    "MOLECULE": "CC(O)c1nc(Cn2nc(-c3ccc(Cl)cc3)n(C[C@H](O)C(F)(F)F)c2=O)nn1-c1cccc(F)c1Cl (single isomer, unassigned) [Example 68]",
    "pIC50": 8.48
  },
  {
    "MOLECULE": "CC(O)c1nc(Cn2nc(-c3ccc(Cl)cc3)n(C[C@H](O)C(F)(F)F)c2=O)nn1-c1ccccc1 (mixture of isomers) [Example 16]",
    "pIC50": 8.51
  }
]

P. CC(O)c1nc(Cn2nc(-c3ccc(Cl)cc3)n(C[C@H](O)C(F)(F)F)c2=O)nn1-c1ccc(F)c(Cl)c1 (single isomer, unassigned) [Example 45]
Q. CC(O)c1nc(Cn2nc(-c3ccc(Cl)cc3)n(C[C@H](O)C(F)(F)F)c2=O)nn1-c1ccccc1 (single isomer, unassigned) [Example 18]
Please indicate which entry, P or Q , has the lower recorded pIC50 value. Answer format: the label of the selected item.
P
(P: 7.04, Q: 7.85)
